molecular target: human Nav1.7 (Homo sapiens (Human), UniProt Q15858); assay: Human Nav1.7 inhibitory activity evaluation (automated patch clamp QPatch16X, HEK293A cells stably expressing human Nav1.7 and human Navβ1); type: cell-based; conditions: human Nav1.7, automated patch clamp
Sequence (Q15858 whole entry): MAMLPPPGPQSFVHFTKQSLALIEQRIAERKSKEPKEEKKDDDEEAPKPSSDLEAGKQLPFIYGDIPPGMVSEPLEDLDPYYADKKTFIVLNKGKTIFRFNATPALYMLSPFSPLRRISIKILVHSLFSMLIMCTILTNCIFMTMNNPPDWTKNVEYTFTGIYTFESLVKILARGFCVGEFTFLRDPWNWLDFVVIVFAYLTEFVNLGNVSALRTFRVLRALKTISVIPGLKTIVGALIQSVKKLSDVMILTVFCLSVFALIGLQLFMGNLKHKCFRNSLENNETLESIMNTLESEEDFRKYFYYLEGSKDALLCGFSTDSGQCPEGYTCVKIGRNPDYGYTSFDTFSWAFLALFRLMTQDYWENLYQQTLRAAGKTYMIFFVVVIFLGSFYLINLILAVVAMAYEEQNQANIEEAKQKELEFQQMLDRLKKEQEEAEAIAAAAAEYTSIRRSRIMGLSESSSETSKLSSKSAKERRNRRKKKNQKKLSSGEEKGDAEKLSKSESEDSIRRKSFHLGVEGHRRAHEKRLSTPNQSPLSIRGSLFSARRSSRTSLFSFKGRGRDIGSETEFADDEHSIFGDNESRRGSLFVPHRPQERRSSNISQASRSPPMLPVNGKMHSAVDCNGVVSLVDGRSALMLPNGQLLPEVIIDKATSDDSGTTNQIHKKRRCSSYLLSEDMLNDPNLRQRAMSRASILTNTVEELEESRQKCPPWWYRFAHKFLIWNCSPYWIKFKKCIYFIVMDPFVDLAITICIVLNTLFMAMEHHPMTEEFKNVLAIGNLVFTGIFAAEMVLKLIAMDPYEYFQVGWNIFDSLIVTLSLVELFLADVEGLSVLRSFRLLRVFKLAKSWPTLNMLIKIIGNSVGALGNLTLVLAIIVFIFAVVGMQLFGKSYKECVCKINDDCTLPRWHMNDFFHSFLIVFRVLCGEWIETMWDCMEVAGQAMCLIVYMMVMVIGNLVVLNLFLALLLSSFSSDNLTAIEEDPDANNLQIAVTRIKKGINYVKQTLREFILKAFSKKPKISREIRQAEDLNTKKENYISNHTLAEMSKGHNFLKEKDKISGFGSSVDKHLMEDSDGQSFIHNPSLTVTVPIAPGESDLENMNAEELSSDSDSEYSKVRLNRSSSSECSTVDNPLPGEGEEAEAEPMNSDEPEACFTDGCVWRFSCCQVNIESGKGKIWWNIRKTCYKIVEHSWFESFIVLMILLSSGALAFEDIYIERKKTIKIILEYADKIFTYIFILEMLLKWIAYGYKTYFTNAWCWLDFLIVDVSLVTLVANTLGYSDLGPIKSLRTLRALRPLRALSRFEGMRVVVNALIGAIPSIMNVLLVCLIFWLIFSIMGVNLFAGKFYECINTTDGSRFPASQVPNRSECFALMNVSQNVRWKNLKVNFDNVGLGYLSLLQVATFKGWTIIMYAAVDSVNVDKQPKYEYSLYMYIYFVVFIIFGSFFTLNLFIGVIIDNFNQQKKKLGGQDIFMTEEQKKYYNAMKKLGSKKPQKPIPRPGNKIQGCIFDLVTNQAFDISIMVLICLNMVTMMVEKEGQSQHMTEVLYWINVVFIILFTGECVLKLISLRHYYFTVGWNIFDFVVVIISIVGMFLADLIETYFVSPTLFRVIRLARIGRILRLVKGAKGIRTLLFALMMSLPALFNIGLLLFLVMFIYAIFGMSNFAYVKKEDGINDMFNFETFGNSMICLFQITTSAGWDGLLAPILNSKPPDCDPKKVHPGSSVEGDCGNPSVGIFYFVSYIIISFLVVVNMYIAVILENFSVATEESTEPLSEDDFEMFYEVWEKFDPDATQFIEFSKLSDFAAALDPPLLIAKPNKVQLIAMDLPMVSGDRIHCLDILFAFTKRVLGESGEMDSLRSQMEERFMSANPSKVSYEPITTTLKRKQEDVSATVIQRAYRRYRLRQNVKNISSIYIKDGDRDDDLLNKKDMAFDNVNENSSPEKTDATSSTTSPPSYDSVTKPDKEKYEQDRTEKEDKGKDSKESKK
Sequence (Q07699 19-218 partner): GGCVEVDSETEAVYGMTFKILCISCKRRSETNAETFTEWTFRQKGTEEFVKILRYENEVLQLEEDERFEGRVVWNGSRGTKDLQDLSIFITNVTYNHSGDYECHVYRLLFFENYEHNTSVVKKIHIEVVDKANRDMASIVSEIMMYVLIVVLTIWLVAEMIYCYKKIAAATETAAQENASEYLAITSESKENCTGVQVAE
pIC50: −log10 of the molar value.
Overview of recorded pIC50 for various compounds

[[record]]
compound = "O=C(NC1COc2ccc(F)c(F)c2C1)c1cc2n(n1)CC(CCOCC(F)(F)F)O2 (centres unmarked)"
observed_result = "> 6.00"

[[record]]
compound = "O=C(N[C@H]1COc2ccc(COCC(F)(F)F)cc2C1)c1cc2n(n1)CCC(C1CCOCC1)O2 (some centres unmarked) [Example 606]"
observed_result = "> 6.00"

[[record]]
compound = "CC(C)(C)OCCN1CCn2nc(C(=O)N[C@H]3COc4ccc(C(F)F)cc4C3)cc2C1"
observed_result = "> 5.00"


Asked: Form field: reported pIC50 of O=C(N[C@H]1COc2ccc(C(F)(F)F)cc2C1)c1nn2c(c1-c1cccc(C(O)C(F)(F)F)n1)COCC2 (some centres unmarked)
Given back: > 6.00

Asked: What measured pIC50 goes with N#Cc1ccc2c(c1)C[C@@H](NC(=O)c1cc3n(n1)CCC(OC(F)(F)F)CO3)CO2 (single isomer, unassigned) [253 (isomer A)] ?
Given back: > 5.00

Asked: Name the reported pIC50 value associated with the compound O=C(N[C@H]1COc2ccc(COCC(F)(F)F)cc2C1)c1cc2n(n1)CCC(CN1CCC(F)(F)C1)O2 (single isomer, unassigned) [154 (isomer A)]
Given back: > 5.00

Asked: Fill in the blank: the reported pIC50 of O=C(N[C@H]1COc2ccc(C(F)(F)F)cc2C1O)c1cc2n(n1)CC(CCCOCC(F)(F)F)O2 (single isomer, unassigned) [603 (isomer A)] is ____.
Given back: > 6.00

Asked: Which pIC50 value belongs to Cn1ccc(-c2ccc3c(c2)C[C@@H](NC(=O)c2cc4n(n2)CC(CCOC(F)(F)F)O4)CO3)n1 (single isomer, unassigned) [213 (isomer A)] ?
Given back: > 6.00

----------
Measured pIC50 of individual entries
Molecular target: human Nav1.7 (Homo sapiens (Human), UniProt Q15858)
Assay: Human Nav1.7 inhibitory activity evaluation (automated patch clamp QPatch16X, HEK293A cells stably expressing human Nav1.7 and human Navβ1)
Format: cell-based
Conditions: human Nav1.7, automated patch clamp
Description: Test Example 1: Human Nav1.7 Inhibitory Activity Evaluation A cell line in which human Nav1.7 and human Navβ1 subunits were stably expressed in HEK293A cells was used. […] The amount of current through human Nav1.7 was recorded using a fully automatic patch clamp device QPatch16X (Sophion Biosciences) at room temperature. […]
pIC50: −log10 of the molar value.

A selection of reference data follows.
[[record]]
molecule = "O=C(N[C@H]1COc2ccc(COCC(F)(F)F)cc2C1)c1cc2n(n1)CCC(C1COCCO1)O2 (stereo partly drawn) [Example 638]"
observed_result = "> 5.00"

[[record]]
molecule = "O=C(N[C@H]1COc2ccc(C(F)(F)F)cc2C1)c1cc2n(n1)CC(CCN1CC(F)(F)C1)O2 (single isomer, unassigned) [236 (isomer B)]"
observed_result = "> 6.00"

[[record]]
molecule = "O=C(N[C@H]1COc2ccc(Cl)cc2C1)c1cc2n(n1)CC(CCN1CC(F)(F)C1)O2 (single isomer, unassigned) [234 (isomer B)]"
observed_result = "> 6.00"

[[record]]
molecule = "COc1cccc(-c2c(C(=O)N[C@H]3COc4ccccc4C3)nc3n2CCCC3)n1"
observed_result = "> 6.00"

[[record]]
molecule = "O=C(N[C@H]1COc2ccc(C(F)(F)F)cc2C1)c1nc2n(c1-c1ccccn1)CCCC2"
observed_result = "> 6.00"

[[record]]
molecule = "CN(C1CCc2nc(C(=O)N[C@H]3COc4ccccc4C3)cn2C1)S(=O)(=O)c1ccccc1 (stereo partly drawn)"
observed_result = "> 5.00"

[[record]]
molecule = "O=C(N[C@H]1COc2ccc(C(F)(F)F)cc2C1O)c1cc2n(n1)CC[C@H](COCC1CC1)O2 (single isomer, unassigned; isomer a) [575(isomer A)]"
observed_result = "> 6.00"

[[record]]
molecule = "CCOC(F)C1CCn2nc(C(=O)N[C@H]3COc4ccc(Cl)cc4C3)cc2O1 (stereo partly drawn)"
observed_result = "> 6.00"


Asked: Requested field: pIC50. Item: O=C(N[C@H]1COc2ccc(C(F)(F)F)cc2C1)c1nn2c(c1-c1cccc(CO)n1)COCC2
Given back: > 5.00

Asked: Look at this molecule and give its reported pIC50. N#Cc1ccc2c(c1)C[C@@H](NC(=O)c1cc3n(n1)CC(CCSCC(F)(F)F)O3)CO2 (stereo partly drawn) [Example 243]
Given back: > 6.00

Asked: Could you share which pIC50 value was measured for CCC(O)(CC)C1CCn2nc(C(=O)N[C@H]3COc4ccc(Cl)cc4C3)cc2O1 (stereo partly drawn) ?
Given back: > 5.00

Asked: Give the measured pIC50 of O=C(N[C@H]1COc2ccc(C(F)(F)F)cc2C1)c1cc2n(n1)CCC(C1CCOCC1)O2 (stereo partly drawn) .
Given back: > 6.00

Asked: Look at this molecule and give its reported pIC50. N#Cc1ccc2c(c1)C[C@@H](NC(=O)c1cc3n(n1)CCC(C(F)(F)F)O3)CO2 (stereo partly drawn) [Example 373]
Given back: > 5.00

Asked: Give the measured pIC50 of N#Cc1ccc2c(c1)C[C@@H](NC(=O)c1cc3n(n1)CCN(C1CCCC1)C3)CO2 .
Given back: > 5.00

Asked: Could you share which pIC50 value was measured for O=C(N[C@H]1COc2ccc(Cl)cc2C1)c1nn2c(c1-c1ccccn1)COCC2 ?
Given back: > 6.00
